Please respond with reported koff for every item in the list.
Target: T1, cynomolgus monkey SLITRK6 extracellular domain linked to his tag (cynomolgus monkey, UniProt G7PVK4 27-608)
T1 construct: extracellular domain; also called cynoSLITRK6; Cyno SLITRK6; not shown: his tag
Assay: BLI; antigen ECD-his on anti-his tips, antibody as analyte; 1:1 fit;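 further: antibody at several concentrations, 180 s association then 300 s dissociation in Tris buffer at pH 6 or 7.5, rate constants from global fitting, KD computed as koff/kon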
Your answer should be a plain number; it is taken to be in s⁻¹.

# binder phA108 (antibody, V domains shown, From phage display, then full-length construction; Only the variable regions are tied to the name) VH: QVQLVQSGAEVKKPGASVKVSCTASGYIFNDYYLHWVRQAPGQGLEWVGIINPSGGSPVYAQKFQGRVTMTRDTSTNTVYMELSSLRSEDTAVYYCARGMVRGVRLFDYWGQGTLVTVSA VL: EIVLTQSPATLSLSPGERATLSCRASQSVSSYLAWYQQKPGQTPRLLIYDASNRATGVPARFSGSGSGTDFTLTISSLETEDFAVYYCQQRTNWPLTFGGGTKVEIK ; its koff = 0.00379

# binder hu1H2-03 (antibody, V domains shown, see m20) VH: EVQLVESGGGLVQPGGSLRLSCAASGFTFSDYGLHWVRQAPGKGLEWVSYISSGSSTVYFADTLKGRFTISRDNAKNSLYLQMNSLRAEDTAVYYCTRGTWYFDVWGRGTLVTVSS VL: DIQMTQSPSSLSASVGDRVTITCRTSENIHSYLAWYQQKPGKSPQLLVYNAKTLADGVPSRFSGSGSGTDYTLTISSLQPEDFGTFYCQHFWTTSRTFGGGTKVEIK ; its koff = 0.000444

# binder hu1H2-13 (antibody, V domains shown) VH: EVQLVESGGGLVQPGGSLRLSCAASGFTFSDYGLHWVRQAPGKGLEWVAYISSGSSTVYFADTLKGRFTISRDNAKNSLYLQMNSLRAEDTAVYYCTRGTWYFDVWGRGTLVTVSS VL: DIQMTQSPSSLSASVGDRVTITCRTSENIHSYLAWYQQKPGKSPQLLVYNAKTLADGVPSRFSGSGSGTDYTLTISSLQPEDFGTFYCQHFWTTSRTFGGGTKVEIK ; its koff = 0.000513

# binder hu14G1-03 (antibody, V domains shown) VH: EVQLVESGGGLVQPGGSLRLSCAASGFTFSDYGMHWVRQAPGKGLEWVSYISPGSSTIYYADTMKGRFTISRDNAKNSLYLQMNSLRAEDTAVYYCARAYGGSYWYFAVWGQGTLVTVSS VL: DIQMTQSPSSLSASVGDRVTITCRASGNIHSYLAWYQQKPGKSPQLLVYNAKTLADGVPSRFSGSGSGTDYTLTISSLQPEDFGTYYCQHFWSTPYTFGGGTKLEIK ; its koff = 0.000329
